Overview of reported selectivity ratio across a group of compounds:
# experimental.protocol: Therapeutic index, ratio of MTD for MDCK2 cells to IC50 for Influenza A/PR8/34 (H1N1) virus
# Type: cell-based
# condition.context: dog, read-out: TI
Answer with a number only.

Worked set:
[
  {
    "compound": "CC(C)CCC[C@@H](C)[C@H]1CC[C@H]2[C@@H]3CC[C@H]4NCCC[C@]4(C)[C@H]3CC[C@]12C",
    "selectivity ratio": 2.5
  },
  {
    "compound": "CC(C)CCC[C@@H](C)[C@H]1CC[C@H]2[C@@H]3CC[C@H]4C[C@H](CN)CC[C@]4(C)[C@H]3CC[C@]12C",
    "selectivity ratio": 10.1
  },
  {
    "compound": "CC(C)CCCC(C)C1CCC2C3CCC4CC(N)CCC4(C)C3CCC12C (stereo unspecified)",
    "selectivity ratio": 8.8
  },
  {
    "compound": "CC(C)CCC[C@@H](C)[C@H]1CC[C@H]2[C@@H]3CC[C@H]4CCNCC[C@]4(C)[C@H]3CC[C@]12C",
    "selectivity ratio": 3.8
  },
  {
    "compound": "CC(C)CCC[C@@H](C)[C@H]1CC[C@H]2[C@@H]3CC[C@H]4C[C@](O)(CN)CC[C@]4(C)[C@H]3CC[C@]12C",
    "selectivity ratio": 10.9
  }
]

Let's switch to this compound now.
Given the entry CC(C)CCC[C@@H](C)[C@H]1CC[C@H]2[C@@H]3CC=C4C[C@@H](N)CC[C@]4(C)[C@H]3CC[C@]12C , report its measured selectivity ratio.
2.9
